# METHOD NOTES: in vivo
# RECORDED CONDITIONS: mouse, in vivo, po
Provide the recorded LD50 for the entries that follow.

Enquiry: Which LD50 value belongs to CCCN(CCC)CCOC1C(C2COC(C)(C)O2)OC2OC(C)(C)OC21 (centres unmarked) ?
Return: 750 mg/kg

Enquiry: Same question, CC1(C)OCC(C2OC3OC(C)(C)OC3C2OCc2ccccc2)O1 (centres unmarked) this time
Return: > 4000 mg/kg

Enquiry: Same question, CCCCCCCCCCCCCCCCOC1C(C2COC(C)(C)O2)OC2OC(C)(C)OC21 (centres unmarked) this time
Return: > 4000 mg/kg

Enquiry: Same question, CCOC1O[C@H]([C@@H](COCc2ccccc2)OCc2ccccc2)[C@H](OCc2ccccc2)[C@H]1O (some centres unmarked) [I, reference compound] this time
Return: > 4000 mg/kg

Enquiry: Same question, CC1(C)OCC(C2OC3OC(C)(C)OC3C2OCC(=O)O)O1 (centres unmarked) this time
Return: > 4000 mg/kg

----------
# Tested on: capillary permeability
# METHOD NOTES: Capillary permeability test
# RECORDED CONDITIONS: 500 mg/kg p.o. mouse
Lab note: anything with Capillary permeability, decrease % below 40% is marked Y; values at 40% or higher are marked N.

Enquiry: Is Capillary permeability, decrease % strictly under 40% for the entry CC1(C)OCC(C2OC3OC(C)(C)OC3C2OCc2ccccc2)O1 (centres unmarked) [XI] ?
Return: Y

Enquiry: Same question, CCOC1C(C2COC(C)(C)O2)OC2OC(C)(C)OC21 (centres unmarked) [IV] this time
Return: N

Enquiry: Same question, CCCCCOC1C(C2COC(C)(C)O2)OC2OC(C)(C)OC21 (centres unmarked) [VII] this time
Return: Y

Enquiry: Same question, CCCCOC1C(C2COC(C)(C)O2)OC2OC(C)(C)OC21 (centres unmarked) [VI] this time
Return: N

Enquiry: Same question, CC1(C)OCC(C2OC3OC(C)(C)OC3C2OCCN2CCCC2)O1 (centres unmarked) [XVIII] this time
Return: N

Enquiry: Same question, CC1(C)OCC(C2OC3OC(C)(C)OC3C2OCCN2CCOCC2)O1 (centres unmarked) [XX] this time
Return: N

Enquiry: Same question, CCOC1O[C@H]([C@@H](COCc2ccccc2)OCc2ccccc2)[C@H](OCc2ccccc2)[C@H]1O (some centres unmarked) [I, reference compound] this time
Return: N

Enquiry: Same question, CC1(C)OCC(C2OC3OC(C)(C)OC3C2OCC(=O)O)O1 (centres unmarked) [XIII] this time
Return: Y

Enquiry: Same question, C=CCOC1C(C2COC(C)(C)O2)OC2OC(C)(C)OC21 (centres unmarked) [IX] this time
Return: N

Enquiry: Same question, CCN(CC)CCOC1C(C2COC(C)(C)O2)OC2OC(C)(C)OC21 (centres unmarked) [XV] this time
Return: Y

Enquiry: Same question, CC(C)N(CCOC1C(C2COC(C)(C)O2)OC2OC(C)(C)OC21)C(C)C (centres unmarked) [XVII] this time
Return: Y

Enquiry: Same question, CC(=O)OC1C(C2COC(C)(C)O2)OC2OC(C)(C)OC21 (centres unmarked) [XII] this time
Return: Y

Enquiry: Same question, CC1(C)OCC(C2OC3OC(C)(C)OC3C2OCCN2CCCCC2)O1 (centres unmarked) [XIX] this time
Return: Y

Enquiry: Same question, CCCOC1C(C2COC(C)(C)O2)OC2OC(C)(C)OC21 (centres unmarked) [V] this time
Return: N

Enquiry: Same question, CN(C)CCOC1C(C2COC(C)(C)O2)OC2OC(C)(C)OC21 (centres unmarked) [XIV] this time
Return: Y

Enquiry: Same question, CCCCCCCCCCCCCCCCOC1C(C2COC(C)(C)O2)OC2OC(C)(C)OC21 (centres unmarked) [VIII] this time
Return: Y

Enquiry: Same question, COC1C(C2COC(C)(C)O2)OC2OC(C)(C)OC21 (centres unmarked) [III] this time
Return: Y

Reference for the values: patent US4251520A
